# System: MS2 coat protein
# method-summary: apparent KD of MS2 coat protein; higher = weaker reporter binding
# assay-setup: Eterna round: R107; input ligand: theophylline 2 mM
measured-attribute: apparent KD of MS2 coat protein (nM)
Give your result in nM as a bare value.

Guide cases for apparent KD of MS2 coat protein, answers given:
Sure, the documented apparent KD of MS2 coat protein for GGACUAACCAGAAGGAGCGGCGCGCAGAAACUGCAAAAUCCUCCGCACGAGGAUCACCCGUGUCAGGUAGGUCGCUGGUUAGUCG [ArgBX 28] is 20.8

AGAGUUAGACAAAAGUCUAGCUCACCAGAAGGAGCGUCCGAAAGGACAGGUAGGUCGCUGGUGCACGAGGAUCACCCGUGUUCCU [ArgAS 21 #OpenEnded #AlternativeMS2] yielded apparent KD of MS2 coat protein of 118

Note to self: apparent KD of MS2 coat protein recorded for GACGGUACGUCGGCAAAGCCGAUGUGCCAGCGAGGACCGGUACGGCCGCCACUCGUACAUGAGGAUCACCCAUGUCCGGUCCGUC [Omei Trp SS A C v3] was 167

New cases:
Reported apparent KD of MS2 coat protein ( GGCCUAGCGAGCGCUCGCUAGGCCGCGGAUACCAGCGAGGUCCAUCGCCCUUGGCAGCCGAACAUGAGGAUCACCCAUGUCGGUA [#1 Same State - Theophylline A Attempt #15 (HarryS)] ) = 16.9

The reported value for GCUGUACCAUGAAGGAGCGUCAUGGAUUGCGAAUACACAUGAGGAUCACCCAUGUUUUUAUGACAGGUAGGUCGCAUGGUACAGC [#01 Same State - Arginine B] in terms of apparent KD of MS2 coat protein is 19.2

Entry ACAUGAGGAUCACCCAUGUACAUAAGGGAAGGAGCGCGGUGAAACGCAGGUAGGUCGCCCAUAAUAACAAUAAAUAAAUUCAUGU [LeftA1] ; apparent KD of MS2 coat protein = 19

Entry GCAGUGGGUUAUAAGUAAUAGAAUUCUGAAGGAGCGUGAUGAAACACAGGUAGGUCGCAGGAACAUGAGGAUCACCCAUGUACGG [Same State Arginine A GF20] — recorded apparent KD of MS2 coat protein = 37.6

What the record says about UGUCGUAGACAUGAGGAUCACCCAUGUCCACGAGGACCGGUACGGCCGCCACUCGGGAUAUAAACCGUUACGGGUGGGUGGUGUU [Maarlainin] : apparent KD of MS2 coat protein is 21.2

Measured apparent KD of MS2 coat protein of GGAUUCAACUCGGCCGCCACUGGUGAUCCUAAUGUACAUGAGGAUCACCCAUGUACAUGAGAAUACAGGACCGGGAGAUAAGCAA [Tryptophan B V2 (+4A)] : 24

Please fill in: apparent KD of MS2 coat protein reported for UCGGUUUUCUACAUGAGGAUCACCCAUGUCCGAGGACCGGUACGGCCGCCACUCGCAAUCAAACAGACGUGGGCCAAAUUUGCGU [Isinso] = 11.6

* * *

# Test system: K4 kissing-loop RNA reporter
# method-summary: apparent KD of K4 kissing-loop reporter; higher = weaker reporter binding
# assay-setup: Eterna round: R107; input ligand: tryptophan 2.4 mM
Label TRUE for high-side apparent KD of K4 kissing-loop reporter (at or above 200 nM) and FALSE for low-side apparent KD of K4 kissing-loop reporter (below it).

Some solved entries appear below for comparison.
query: Textbook exercise: given the entry GGCGGCCGCGCGAAAGCGCGGCCGGCCGAUACCAGCGCGACGGCGCGCCCUUGGCAGCGGCGCCGAGUGAUGUUCGGCCUGCCGU [#2 Same State - Theophylline A Attempt #13 (HarryS)] , state whether its apparent KD of K4 kissing-loop reporter is greater than or equal to 200 nM.
result: FALSE

query: apparent KD of K4 kissing-loop reporter >= 200 nM for CGUGAGUGAUGUUCACGAGGCUUGUUUCUAGAGGAUAUUCACUUUAGAAGAAGGCUAGAGAUCUAUAUCGUGAUGCUCGAUAACG [FMN A Ex t1] ?
result: FALSE

query: Check the entry CCGGCCCGGCCGGAUACCAGUGCGCCGCUGUGAACUGCGGGCCCAGAGUGAUGUUCGGGACACCCUUGGCAGCCGCCUGGGUCGC [#2 Same State - Theophylline B Attempt #26 (HarryS)] : does apparent KD of K4 kissing-loop reporter equal or exceed 200 nM?
result: TRUE

query: Item CGUUUAUUGCAGGAUACCAGUACCCAUUAUGUACGUUUAUAGUAGAGUGAUGUUCUAAAGUACCCUUGGCAGCUUCCCGUGACCC [#22 K4 Theophylline B Exclusion] with apparent KD of K4 kissing-loop reporter of 200 nM or above?
result: FALSE

New cases:
query: Confirm if apparent KD of K4 kissing-loop reporter reported for the sequence GGAUAGGACAGAGGAUAUGGUAGUGAUGUUACCAACAGCCUACUGUCAAUAAAGACGGUUGGCUGACCAGAAGGCUGUCCUAUCG [Mod of Eli's FmnBX 26 v1] is 200 nM or above.
result: FALSE

* * *

# Tested on: K4 kissing-loop RNA reporter
# method-summary: apparent KD of K4 kissing-loop reporter; higher = weaker reporter binding
# assay-setup: Eterna round: R107; input ligand: tryptophan 2.4 mM
Tick Met if apparent KD of K4 kissing-loop reporter is 300 nM or greater. Tick Not met if apparent KD of K4 kissing-loop reporter is less than 300 nM.

query: Does apparent KD of K4 kissing-loop reporter meet or surpass 300 nM for UUAGCGACAAGUCAGAUUCUGACAAUUGAUACCAGAUAGAAUUCUAUCCCUUGGCAGCAGUGAUGUUGUUGCAAUAAGUCGCAUU [AK2 Exc Theophylline A] ?
result: Not met

query: State whether the measured apparent KD of K4 kissing-loop reporter reaches 300 nM, counting equality as reaching it, for AGUGAUGUUGUGUUAUGUUAGUGAAGUGAUCGAGGACCGGUACGGCCGCCACUCGAGUGAUGAGUGAGUGAUGUUUGUUUAGGGA [popmullin]
result: Met

query: Dear colleague, could you confirm whether AAGGUCACUGCUACAGUGAUGUUGUGGGAGCAGGAUAUGCUGAAAAGCAGAAGGGCUCGCUCCAGGUGACCGAAUGAAACAUUCA [whbob_SS_FMNA__2th176] has apparent KD of K4 kissing-loop reporter at or above 300 nM?
result: Met

query: Can UCGAACGAUGGAAGGAGCGCUCGUCAGUCCUGCGAGUGAUGUUCGUGGGUAAAUAGUCGCGAGCAGGUAGGUCGCCAUCUUGAGC [Indiermaar] be said to have apparent KD of K4 kissing-loop reporter at or above 300 nM?
result: Not met

query: Form field: apparent KD of K4 kissing-loop reporter at least 300 nM? Entry: UACCUAUUAUUAACACUAUAUACAACUGAAGGAGCGACAAUAAAGUCAGGUAGGUCGCAGAAUUAAUGAGUGAUGUUCAUUUUUA [JR_ExcArginiA_Sub014]
result: Not met

New cases:
query: Is the recorded value of apparent KD of K4 kissing-loop reporter equal to or greater than 300 nM for this sequence? AUUUUUUUGUCAGGAUAUUAGUGUUGGUUUGGUUUGUUAGUGAUGUUGAUAUUUGUUUUAUGUAUUUAAGAAGGGAUUUAGCUGU [ppdemullin]
result: Not met

query: State whether the measured apparent KD of K4 kissing-loop reporter reaches 300 nM, counting equality as reaching it, for AUACCUCUACGAGUGAUGUUUGUUGAGGAUACCAGCAUGUAUAGUUGCCCUUGGCAGCCUUGGCUCGUGCGCUCCCUCCGAACCG [theeternabot_exclusion_KL_Theo_A_30]
result: Not met

query: Determine whether this sequence has apparent KD of K4 kissing-loop reporter no lower than 300 nM: AAAUAACAGGCAGGAUAUGCUUAGUAAUAAGGCCAUAUAUACGUAUAGAGUGAUGUUUUGUACAAAGCAGAAGGGCUAAAUCCAU [FMN B Excl V1]
result: Not met

* * *

A collection of sequences and their measured apparent KD of K4 kissing-loop reporter
# Test system: K4 kissing-loop RNA reporter;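 also: bound reporter read as fluorescence of individual clusters on recovered sequencing chips by microscopy, with normalized cluster intensities fitted with a binding model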
# method-summary: apparent KD of K4 kissing-loop reporter; higher = weaker reporter binding
# assay-setup: Eterna round: R107; input ligand: tryptophan 2.4 mM
// units = nM; emit number, no label

Record excerpt, results attached:
Entry under test: AGACUACCACACUGUCAAUAGACAGUGUACUAGGAUAUGCUGAUAAGCAGAAGGAGUGAUGUUCCAAGGUAGUCAAUAAAAUAAU [FmnAX 13 U28+A66] . Its apparent KD of K4 kissing-loop reporter was 206

The measured apparent KD of K4 kissing-loop reporter associated with GGUAGCAUGGCGGCCGCCACUACCUAGUGAUGUUAGGCUGUGGACAUAGGAGCAAGACAAAUAUGUAGGACCGGGCCAUGCUACC reads 131

// recorded apparent KD of K4 kissing-loop reporter for UGAUACCAGACGGCCGCCACUCCUGCAGUCAAAGACUGCUAAAGGAAAUUCGUCCAGUGAUGUUGGAGGACCGGGUCUGGUAUCU [TrypBX 13 #SwitchBubble #Palindromic #StaticStem] : 480

Consider now this further sequence.
Recorded result, AUAGCACCUUAUGAUACCAGACGAGUGAUGUUCUGUGGUGUCGUCACAAGGCAAUCGACUGUCCCUUGGCAGCAUCAUUCUAUAU [theeternabot_exclusion_KL_Theo_B_31] , apparent KD of K4 kissing-loop reporter: 730
